List of EC50 values.
Molecular target: hAT1R (Homo sapiens)
Sequence (P30556 1-359): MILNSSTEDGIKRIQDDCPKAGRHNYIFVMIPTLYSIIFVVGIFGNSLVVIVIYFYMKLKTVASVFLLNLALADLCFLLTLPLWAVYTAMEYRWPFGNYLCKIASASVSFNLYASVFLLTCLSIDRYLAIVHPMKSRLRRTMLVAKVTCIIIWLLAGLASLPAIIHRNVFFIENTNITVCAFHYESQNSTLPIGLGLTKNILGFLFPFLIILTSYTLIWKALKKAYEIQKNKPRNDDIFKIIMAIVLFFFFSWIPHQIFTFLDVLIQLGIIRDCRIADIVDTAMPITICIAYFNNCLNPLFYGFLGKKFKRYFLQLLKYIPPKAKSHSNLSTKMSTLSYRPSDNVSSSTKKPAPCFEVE
Test: BRET Gq biosensor assay, agonist response, HEK293 cells
Format: cell-based
Conditions: section of the 42nd table directly before the BRET P63 section
Where a name gives a salt, the structure may show the parent alone.
Provide the reading as a plain figure in nM.

Illustrative cases are given below, each with its answer.
- COMPOUND: "CCCCc1nc(Cl)c(C(=O)OCc2oc(=O)oc2C)n1Cc1ccc(-c2cc(-c3ccccc3)ccc2-c2nn[nH]n2)cc1"
  RECORDED ENDPOINT: "EC50"
  OBSERVED VALUE: 17
- COMPOUND: "CCCCC(=O)N(Cc1ccc(-c2cc(-c3ccccc3)ccc2-c2nn[nH]n2)cc1)C1(C(=O)O)CCN(c2ccccc2)CC1"
  RECORDED ENDPOINT: "EC50"
  OBSERVED VALUE: 958
- COMPOUND: "CCCCc1nc(Cl)c(C(=O)O)n1Cc1ccc(-c2cc(-c3ccc(C(=O)N(C)C)cc3)ccc2-c2noc(=O)[nH]2)cc1"
  RECORDED ENDPOINT: "EC50"
  OBSERVED VALUE: 136
- COMPOUND: "CCCc1nc(C(C)(C)O)c(C(=O)[O-])n1Cc1ccc(-c2cc(-c3ccccc3)ccc2-c2noc(=O)[nH]2)cc1.[Na+]"
  RECORDED ENDPOINT: "EC50"
  OBSERVED VALUE: 70.9
- COMPOUND: "CCCCC1=NC2(CCCC2)C(=O)N1Cc1ccc(-c2cc(-c3ccccc3)ccc2-c2nn[nH]n2)cn1"
  RECORDED ENDPOINT: "EC50"
  OBSERVED VALUE: 44.8

Supply measured EC50 of CCCCc1ncc(C(=O)O)n1Cc1ccc(-c2cc(-c3ccccc3)ccc2-c2nn[nH]n2)cc1 [Example 345, TFA salt] in your reply. 12.5

Dear colleague, please send me the reported EC50 for CCCCC(=O)N(Cc1ccc(-c2cc(-c3cccnc3OC)ccc2-c2nn[nH]n2)cc1)[C@H](C(=O)O)C(C)C when you can. 386

Specify reported EC50 for the compound shown: CCOc1nc2cccc(C(=O)O)c2n1Cc1ccc(-c2cc(-c3cc(C)ccn3)ccc2-c2nn[nH]n2)cc1 7.9

Entry CCOc1nc2cccc(C(=O)O)c2n1Cc1ccc(-c2cc(-c3ccccc3)ccc2C(=O)O)cc1 needs its EC50 filled in; supply it. 129

###

Biological target: AGTR1 (Homo sapiens)
Construct: host or cells: Pathunter CHO-K1 AGTR1 β-arrestin cell line (CHO-K1)
Sequence (P30556 1-359): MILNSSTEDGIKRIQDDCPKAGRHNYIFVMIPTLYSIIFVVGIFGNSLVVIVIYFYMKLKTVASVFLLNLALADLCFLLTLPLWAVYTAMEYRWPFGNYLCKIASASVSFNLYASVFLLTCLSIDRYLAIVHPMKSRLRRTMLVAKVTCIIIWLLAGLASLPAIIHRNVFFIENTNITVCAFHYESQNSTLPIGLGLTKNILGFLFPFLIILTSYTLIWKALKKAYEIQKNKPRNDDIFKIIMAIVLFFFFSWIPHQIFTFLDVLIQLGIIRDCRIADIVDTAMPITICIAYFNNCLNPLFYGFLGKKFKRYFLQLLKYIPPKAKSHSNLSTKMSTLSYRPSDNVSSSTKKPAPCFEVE
Test: DiscoveRx IP1 accumulation assay (HTRF), agonist mode, Pathunter CHO-K1 AGTR1 β-arrestin cell line
Format: cell-based
Could you please classify the records by IP-1 Ymax (%) using these ranges: bin A (below 7%), bin B (7% to below 20%), bin C (20% or more)

Here's what some known entries look like.
- COMPOUND: "CCc1nc2c(C)cc(C)nc2n1Cc1ccc(-c2cc(-c3cc(C)ccn3)ccc2-c2nn[nH]n2)cc1"
  ASSIGNED CLASS: "bin C"
- COMPOUND: "CCC1=NC2(CCOC2)C(=O)N1Cc1ccc(-c2cc(-c3ccccc3)ccc2-c2nn[nH]n2)cc1 (single isomer, unassigned)"
  ASSIGNED CLASS: "bin B"
- COMPOUND: "CCCc1cn(-c2ccc(-c3nnn[nH]3)c(-c3ccc(Cn4c(CC)nc5c(C)cc(C)nc54)cc3)c2)nn1"
  ASSIGNED CLASS: "bin B"
- COMPOUND: "CCc1nc2c(C)cc(C)nc2n1Cc1ccc(-c2cc(-c3cc(C(F)F)ccn3)ccc2-c2nn[nH]n2)cc1"
  ASSIGNED CLASS: "bin B"
- COMPOUND: "CCCCC1=NC2(CCOCC2)C(=O)N1Cc1ccc(-c2cc(-c3cc(C)ccn3)ccc2-c2nn[nH]n2)cc1"
  ASSIGNED CLASS: "bin C"
- COMPOUND: "CCc1nc2c(C)cc(C)nc2n1Cc1ccc(-c2cc(Oc3cc(N)ccn3)ccc2-c2nn[nH]n2)cc1"
  ASSIGNED CLASS: "bin B"
- COMPOUND: "CCCCC1=NC2(CCCC2)C(=O)N1Cc1ccc(-c2cc(-c3ccc(C)cc3)ccc2-c2nn[nH]n2)cc1"
  ASSIGNED CLASS: "bin A"
- COMPOUND: "CCc1nc2c(C)cc(C)nc2n1Cc1ccc(-c2cc(Oc3ncccc3F)ccc2-c2nn[nH]n2)cc1"
  ASSIGNED CLASS: "bin B"
- COMPOUND: "CCCCC1=NC2(CCOCC2)C(=O)N1Cc1ccc(-c2cc(-c3ccccc3O)ccc2-c2nnn[nH]2)cc1"
  ASSIGNED CLASS: "bin B"
- COMPOUND: "CCCCC1=NC2(CCCC2)C(=O)N1Cc1ccc(-c2cc(-c3ccccc3)ccc2-c2nn[nH]n2)cc1"
  ASSIGNED CLASS: "bin A"

Note: place this compound into its band. Item: CCCCC(=O)N(Cc1ccc(-c2cc(-c3ccccc3)ccc2-c2nn[nH]n2)cc1)[C@H](C(=O)O)C(C)C bin A

Please let me know in which category the item CCc1nc2c(C)cc(C)nc2n1Cc1ccc(-c2cc(-c3cc(C)cc(C)c3)ccc2C(=O)O)cc1 belongs. bin A

The values you see were collected from patent US12037324B2.
